- assay: inhibitors of TNFa-induced NFkB p65 translocation, primary screen, imaging, HUVEC, MLSMR starter and 10KST1 sets (AID 438);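 also: compound added about 3h40 before a 20 min TNFalpha stimulation; signal is the nuclear over cytoplasmic p65 intensity ratio per well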
- experimental.conditions: HUVEC TNFa-induced p65 nuclear translocation; at 2 µM, hits give high values, 0% TNFa-plus-vehicle, 100% no-TNFa wells
Calls of active or inactive are those of the source.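 The calls were made as follows: active = inhibition above 20% together with a positive visual image hit; inconclusive = visual image hit but inhibition not above 20%; inactive = no visual image hit.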
parameter: inhibition

Worked examples, 10 molecules total:
{"molecule": "C=CCSC1=C(C#N)C(c2ccccc2OCC)CC(=O)N1 (stereo not given)", "parameter": "inhibition", "test.result": "-4.1% (inactive)"}
{"molecule": "CCOC(=O)C1=C(N)N2C(=O)CSC2=C(C(=O)OC)C1", "parameter": "inhibition", "test.result": "1.5% (inactive)"}
{"molecule": "CCCc1nnc(NC(=O)CCC(=O)N2CCN(CCOc3ccc(C)cc3)CC2)s1", "parameter": "inhibition", "test.result": "-5.6% (inactive)"}
{"molecule": "CCn1c(NC(=O)c2cccc(Cn3cc(Cl)cn3)c2)nc2ccccc21", "parameter": "inhibition", "test.result": "4% (inactive)"}
{"molecule": "COC(=O)c1ccccc1NC(=O)COc1ccc(S(=O)(=O)N2CCCC2)cc1C", "parameter": "inhibition", "test.result": "7% (inactive)"}
{"molecule": "COc1ccccc1C1/C(=C(/O)c2ccc(OC(C)C)cc2)C(=O)C(=O)N1c1cc(C)on1 (stereo not given)", "parameter": "inhibition", "test.result": "-8.5% (inactive)"}
{"molecule": "CN1CCc2c(C#N)c(N3CCCCC3)nc(NCc3ccccc3)c2C1", "parameter": "inhibition", "test.result": "-13.5% (inactive)"}
{"molecule": "O=C(CSCc1ccc(F)cc1)NC1CCCC1", "parameter": "inhibition", "test.result": "-2.8% (inactive)"}
{"molecule": "CCOC(=O)C1=C(C)OC(N)=C(C#N)C1c1cc2ccccc2nc1N1CCCCC1 (stereo not given)", "parameter": "inhibition", "test.result": "-8.2% (inactive)"}
{"molecule": "O=C(CNC(=O)c1cc2ccccc2o1)NCc1cccs1", "parameter": "inhibition", "test.result": "3.6% (inactive)"}

What value of measured inhibition is listed for `Cn1c(N2CCN(c3ccccn3)CC2)nc2c1c(=O)n(Cc1ccccc1Cl)c(=O)n2C` ?
4.2% (inactive)

What value of measured inhibition is listed for CCOc1cccc(N2C(=O)CC(N(CCc3ccc(OC)c(OC)c3)C(=O)CC)C2=O)c1 (stereo not given) ?
-0.6% (inactive)

What value of measured inhibition is listed for COc1ccc(C2CC(c3ccc(Cl)cc3Cl)n3nc(N)nc3N2)cc1 (stereo not given) ?
-1.8% (inactive)

What value of measured inhibition is listed for `C=CCN(C)CCCNC(=O)/C=N/O` ?
-6.9% (inactive)

What value of measured inhibition is listed for `CSc1ccccc1NC(=O)c1cnc2n(c1=O)CCS2` ?
-9.6% (inactive)

What value of measured inhibition is listed for `COCCCn1c(SCC(=O)Nc2cccc(C)n2)nnc1-c1ccco1` ?
-10.2% (inactive)

What value of measured inhibition is listed for COC(=O)C(NC(=O)c1ccc(F)cc1)(Nc1nc(C)cs1)C(F)(F)F (stereo not given) ?
-6.3% (inactive)

What value of measured inhibition is listed for COc1cccc(N2CCN(C(=O)c3ccc(=O)oc3)CC2C)c1 (stereo not given) ?
-13.7% (inactive)

What value of measured inhibition is listed for CC1Cc2ccccc2N1S(=O)(=O)c1ccc2c(c1)n(C)c(=O)c(=O)n2C (stereo not given) ?
6.6% (inactive)

What value of measured inhibition is listed for O=C(NCC1CCCO1)c1ccc(C(=O)NCC2CCCO2)cc1 (stereo not given) ?
1.9% (inactive)

What value of measured inhibition is listed for `O=C(NCCc1c[nH]c2ccccc12)c1ccc(S(=O)(=O)NCc2ccco2)cc1` ?
9.3% (inactive)

What value of measured inhibition is listed for `CCC(CC)c1nc2cc(OC)c(OC)cc2c(=O)o1` ?
0.1% (inactive)

What value of measured inhibition is listed for `COc1ccc(C(=O)c2ccc(N3CCOCC3)cc2)c(OC)c1` ?
-6.6% (inactive)

What value of measured inhibition is listed for `Nc1ccc(C(=O)OCCCc2nc3ccccc3[nH]2)cc1` ?
-2.2% (inactive)

What value of measured inhibition is listed for `CCOC(=O)C1CCN(C(=O)CCCCn2c(=O)[nH]c3ccccc3c2=O)CC1` ?
-8.6% (inactive)

What value of measured inhibition is listed for `Cc1cc(NS(=O)(=O)c2ccccc2)no1` ?
-5.5% (inactive)

What value of measured inhibition is listed for `CCCN(CC1CC1)C(=O)Nc1ccccc1C` ?
-11.6% (inactive)

What value of measured inhibition is listed for COc1ccc(C2CC(c3ccc(C)cc3)Nc3nc(N)nn32)cc1 (stereo not given) ?
2.2% (inactive)

What value of measured inhibition is listed for `Cc1cc2cc(CN(CCCN3CCOCC3)C(=O)NC3CCCCC3)c(=O)[nH]c2cc1C` ?
-2.5% (inactive)

What value of measured inhibition is listed for O=C1OC(N2CCN(C/C=C/c3ccccc3)CC2)c2ccccc21 (stereo not given) ?
-1.2% (inactive)

What value of measured inhibition is listed for `FC(F)(F)c1cccc(N2CCc3cn[nH]c32)c1` ?
2.2% (inactive)

What value of measured inhibition is listed for Cc1nn(CC(O)Cn2c3c(c4ccccc42)CCN(C)C3=O)c(C)c1Br (stereo not given) ?
-4.7% (inactive)

What value of measured inhibition is listed for CCOC(=O)C(O)(C1C(=O)CC(C)(C)CC1=O)C(F)(F)F (stereo not given) ?
-12.6% (inactive)

Values compiled from PubChem BioAssay.
